Experiment: pKa determination
Assay type: physicochemical
Details: read-out: pKa of conjugate acid

# Sample smiles, pKa
rows = [
    ("CNC(=O)c1cc(Oc2ccc(NC(=O)c3cccc(C(F)(F)F)c3)cc2)ccn1.Cc1ccc(S(=O)(=O)O)cc1.O", 2.86),
]

---

Experiment: Pharmacokinetic study in beagle dogs
Format: in vivo
Settings: beagle, dog, plasma, iv, 30 mg/kg, Beagle 1

# Sample smiles, half-life (h)
records = [
    ("CNC(=O)c1cc(Oc2ccc(NC(=O)c3cccc(C(F)(F)F)c3)cc2)ccn1.Cc1ccc(S(=O)(=O)O)cc1.O", 6.39),
]

---

Test: Pharmacokinetic study in beagle dogs
Assay type: in vivo
Conditions: beagle, dog, plasma, iv, 30 mg/kg, Beagle 2
Measured parameter: AUC(0-t) (ng·h/mL)

# Sample smiles, Unit tag, Observed
data = [
    ("CNC(=O)c1cc(Oc2ccc(NC(=O)c3cccc(C(F)(F)F)c3)cc2)ccn1.Cc1ccc(S(=O)(=O)O)cc1.O", "ng·h/mL", 34400),
]
